B1: HDV Ribozyme (parent)
chain: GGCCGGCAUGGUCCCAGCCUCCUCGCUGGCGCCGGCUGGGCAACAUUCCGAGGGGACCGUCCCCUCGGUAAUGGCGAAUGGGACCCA

# Variants of: B1
# TEST PROTOCOL: self-cleavage, relative activity (ratio to wild type); higher = more cleavage; co-transcriptional
self-cleavage below 0.2 gives no; self-cleavage at or above it gives yes.

| VARIANT STRING | QUALITATIVE LABEL |
| --- | --- |
| A43U G81A | no |
| C48G U60G | yes |
| C22A A77U | no |
| C66G C85G | yes |
| C49G U79A | yes |
| C18A G31U | no |
| G10U G11C | yes |
| G10C A43G | yes |
| U47A C61G | yes |
| G40A U46A | yes |
| C15A U72C | yes |
| C33U G82C | yes |
| G25U U47C | no |
| G28U C30A | no |
| C36U C84A | yes |
| G59U C64G | yes |
| G34C U69C | yes |
| C18U G38C | no |
| G35U U69G | yes |
| G1C U79C | no |
| C66U G76A | yes |
| G40C U79G | no |
| G25A C61G | no |
| A16U G54C | yes |
| C30A A43C | no |
| A8U U72A | yes |
| U23A G52C | yes |
| G39C A42G | no |
| C14A C75G | yes |
| C36A U69C | no |
| G17A A42U | no |
| A70C C75G | no |
| G34C U65C | yes |
| C41G A42U | yes |
| G11U C14A | no |
| G67U G68U | yes |
| C18U A83U | yes |
| G50C C61G | yes |
| G31U U72A | no |
| G76A C85A | yes |
| C15G C33G | no |
| G2U A83U | no |
| U12A A43C | no |
| G5A C61U | no |
| C41G U79G | yes |
| G28A G35U | no |
| A83C C86G | yes |
| G5C G82U | no |
| A43U G80C | no |
| U9G A45U | yes |
| A51C U79A | yes |
| U46G G50U | yes |
| C14U C30G | no |
| C14U C62U | yes |
| A70C A87G | yes |
| C18G C63U | no |
| G53U U79G | yes |
| A16U G29A | no |
| G1A C63A | yes |
| G40U G67C | yes |
| G34U C86A | yes |
| C3A C21A | no |
| C32U C41G | yes |
| C48A C84G | yes |
| G73C G82C | no |
| A45C C57A | yes |
| A70G G76U | yes |
| G5U G34C | no |
| G1U U72A | yes |
| A8C U69G | yes |
